Catalogue of molecules with associated pIC50
# tested-on: Delta-type opioid receptor (Mus musculus)
# Sequence (P32300 whole entry): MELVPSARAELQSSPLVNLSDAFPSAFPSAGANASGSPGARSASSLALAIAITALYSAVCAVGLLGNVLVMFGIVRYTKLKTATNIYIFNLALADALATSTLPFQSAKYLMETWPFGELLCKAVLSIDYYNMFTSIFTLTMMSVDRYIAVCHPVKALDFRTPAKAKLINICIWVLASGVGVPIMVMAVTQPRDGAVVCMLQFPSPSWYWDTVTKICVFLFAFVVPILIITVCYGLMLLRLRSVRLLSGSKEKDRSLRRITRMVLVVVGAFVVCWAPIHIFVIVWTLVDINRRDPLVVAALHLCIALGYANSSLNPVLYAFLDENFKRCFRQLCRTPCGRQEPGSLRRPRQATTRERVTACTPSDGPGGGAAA
# assay-procedure: Agonist activity at delta opioid receptor in mouse vas deferens
Non-standard residues stand in square brackets, D forms with d. Residues, ends and D or L forms follow the SMILES beside them. Dmt = Cc1cc(O)cc(C)c1C[C@H](N)C(=O)O; dCit = NC(=O)NCCC[C@@H](N)C(=O)O; NMeNle = CCCC[C@H](NC)C(=O)O; Nle = CCCC[C@H](N)C(=O)O
In textbook form, pIC50 equals minus log to base ten of the concentration in mol/L.

Sample "Cc1cc(O)cc(C)c1C[C@H](N)C(=O)N[C@H](CCCNC(=N)N)C(=O)N[C@@H](Cc1ccccc1)C(=O)N(C)[C@@H](CCCCN)C(N)=O" — what was its pIC50?
8.15

Sample "CCCC[C@@H](C(N)=O)N1Cc2ccccc2C[C@H](NC(=O)[C@@H](CCCN=C(N)N)NC(=O)[C@@H](N)Cc2c(C)cc(O)cc2C)C1=O" — what was its pIC50?
8.51

Sample CCCC[C@H](NC(=O)[C@H](Cc1ccccc1)NC(=O)[C@@H](CCCN=C(N)N)NC(=O)[C@@H](N)Cc1c(C)cc(O)cc1C)C(N)=O (H-[Dmt][dR]F[Nle]-NH2) — what was its pIC50?
8.21

Sample "CCCC[C@@H](C(N)=O)N1Cc2ccccc2C[C@H](NC(=O)[C@@H](CCCNC(N)=O)NC(=O)[C@@H](N)Cc2c(C)cc(O)cc2C)C1=O" — what was its pIC50?
8.94

Sample CCCC[C@@H](C(N)=O)N(C)C(=O)[C@H](Cc1ccccc1)NC(=O)[C@@H](CCCNC(N)=O)NC(=O)[C@@H](N)Cc1c(C)cc(O)cc1C (H-[Dmt][dCit]F[NMeNle]-NH2) — what was its pIC50?
8.82

Sample "CCCC[C@@H](C(N)=O)N(C)C(=O)[C@H](Cc1ccccc1)NC(=O)[C@@H](CCCN=C(N)N)NC(=O)[C@@H](N)Cc1c(C)cc(O)cc1C" — what was its pIC50?
8.82

Sample CCCC[C@H](NC(=O)[C@H](Cc1ccccc1)NC(=O)[C@@H](CCCNC(N)=O)NC(=O)[C@@H](N)Cc1c(C)cc(O)cc1C)C(N)=O (H-[Dmt][dCit]F[Nle]-NH2) — what was its pIC50?
8.33

Sample "Cc1cc(O)cc(C)c1C[C@H](N)C(=O)N[C@H](CCCNC(N)=O)C(=O)N[C@@H](Cc1ccccc1)C(=O)N(C)[C@@H](CCCCN)C(N)=O" — what was its pIC50?
8.36

Sample "Cc1cc(O)cc(C)c1C[C@H](N)C(=O)N[C@H](CCCNC(N)=O)C(=O)N[C@H]1Cc2ccccc2CN([C@@H](CCCCN)C(N)=O)C1=O" — what was its pIC50?
6.00

Sample "Cc1cc(O)cc(C)c1C[C@H](N)C(=O)N[C@H](CCCNC(N)=O)C(=O)N[C@@H](Cc1ccccc1)C(=O)N[C@@H](CCCCN)C(N)=O" — what was its pIC50?
8.85

###

# tested-on: Delta-type opioid receptor (Rattus norvegicus)
# Sequence (P33533 whole entry): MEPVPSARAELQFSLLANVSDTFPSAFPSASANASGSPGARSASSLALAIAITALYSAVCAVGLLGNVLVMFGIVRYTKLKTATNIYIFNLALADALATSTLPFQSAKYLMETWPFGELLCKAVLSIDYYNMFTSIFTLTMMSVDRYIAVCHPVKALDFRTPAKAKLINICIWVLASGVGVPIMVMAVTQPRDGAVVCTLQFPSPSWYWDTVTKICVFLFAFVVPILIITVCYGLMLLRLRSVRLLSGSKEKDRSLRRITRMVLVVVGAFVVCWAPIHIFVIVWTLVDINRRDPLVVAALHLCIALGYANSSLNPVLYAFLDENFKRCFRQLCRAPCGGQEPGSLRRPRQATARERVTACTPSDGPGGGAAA
# assay-procedure: Displacement of [3H]DSLET from delta opioid receptor in rat brain membranes after 2 hrs
Non-standard residues stand in square brackets, D forms with d. Residues, ends and D or L forms follow the SMILES beside them. Dmt = Cc1cc(O)cc(C)c1C[C@H](N)C(=O)O; dCit = NC(=O)NCCC[C@@H](N)C(=O)O; NMeNle = CCCC[C@H](NC)C(=O)O; Nle = CCCC[C@H](N)C(=O)O
parameter-measured: pKi
In textbook form, pKi equals minus log to base ten of the concentration in mol/L.

Reference set (2 entries):
| compound | observed |
| --- | --- |
| CCCC[C@@H](C(N)=O)N1Cc2ccccc2C[C@H](NC(=O)[C@@H](CCCN=C(N)N)NC(=O)[C@@H](N)Cc2c(C)cc(O)cc2C)C1=O | 8.13 |
| Cc1cc(O)cc(C)c1C[C@H](N)C(=O)N[C@H](CCCNC(N)=O)C(=O)N[C@@H](Cc1ccccc1)C(=O)N(C)[C@@H](CCCCN)C(N)=O | 7.41 |

Sample "CCCC[C@@H](C(N)=O)N(C)C(=O)[C@H](Cc1ccccc1)NC(=O)[C@@H](CCCN=C(N)N)NC(=O)[C@@H](N)Cc1c(C)cc(O)cc1C" — what was its pKi?
7.80

Sample "Cc1cc(O)cc(C)c1C[C@H](N)C(=O)N[C@H](CCCNC(=N)N)C(=O)N[C@H]1Cc2ccccc2CN([C@@H](CCCCN)C(N)=O)C1=O" — what was its pKi?
7.41

Sample "Cc1cc(O)cc(C)c1C[C@H](N)C(=O)N[C@H](CCCNC(N)=O)C(=O)N[C@H]1Cc2ccccc2CN([C@@H](CCCCN)C(N)=O)C1=O" — what was its pKi?
7.24

Sample "Cc1cc(O)cc(C)c1C[C@H](N)C(=O)N[C@H](CCCNC(N)=O)C(=O)N[C@@H](Cc1ccccc1)C(=O)N[C@@H](CCCCN)C(N)=O" — what was its pKi?
7.30

Sample CCCC[C@H](NC(=O)[C@H](Cc1ccccc1)NC(=O)[C@@H](CCCNC(N)=O)NC(=O)[C@@H](N)Cc1c(C)cc(O)cc1C)C(N)=O (H-[Dmt][dCit]F[Nle]-NH2) — what was its pKi?
8.40

Sample "CCCC[C@@H](C(N)=O)N1Cc2ccccc2C[C@H](NC(=O)[C@@H](CCCNC(N)=O)NC(=O)[C@@H](N)Cc2c(C)cc(O)cc2C)C1=O" — what was its pKi?
8.50

Sample CCCC[C@H](NC(=O)[C@H](Cc1ccccc1)NC(=O)[C@@H](CCCN=C(N)N)NC(=O)[C@@H](N)Cc1c(C)cc(O)cc1C)C(N)=O (H-[Dmt][dR]F[Nle]-NH2) — what was its pKi?
7.82

Sample CCCC[C@@H](C(N)=O)N(C)C(=O)[C@H](Cc1ccccc1)NC(=O)[C@@H](CCCNC(N)=O)NC(=O)[C@@H](N)Cc1c(C)cc(O)cc1C (H-[Dmt][dCit]F[NMeNle]-NH2) — what was its pKi?
8.30

Sample "Cc1cc(O)cc(C)c1C[C@H](N)C(=O)N[C@H](CCCNC(=N)N)C(=O)N[C@@H](Cc1ccccc1)C(=O)N(C)[C@@H](CCCCN)C(N)=O" — what was its pKi?
6.51

###

# pKi measurements, system: Mu-type opioid receptor (Rattus norvegicus, UniProt P33535)
# Sequence (P33535 whole entry): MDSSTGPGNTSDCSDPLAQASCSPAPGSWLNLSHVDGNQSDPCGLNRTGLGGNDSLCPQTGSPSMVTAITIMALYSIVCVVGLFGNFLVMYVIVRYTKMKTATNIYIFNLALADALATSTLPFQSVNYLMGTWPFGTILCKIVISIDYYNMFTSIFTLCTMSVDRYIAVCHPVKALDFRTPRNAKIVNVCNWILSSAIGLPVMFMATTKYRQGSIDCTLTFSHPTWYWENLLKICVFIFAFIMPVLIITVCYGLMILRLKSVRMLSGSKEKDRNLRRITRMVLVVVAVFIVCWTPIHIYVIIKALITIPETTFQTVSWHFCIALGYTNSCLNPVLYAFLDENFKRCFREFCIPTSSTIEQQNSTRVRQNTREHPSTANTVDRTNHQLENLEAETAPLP
Non-standard residues stand in square brackets, D forms with d. Residues, ends and D or L forms follow the SMILES beside them. Dmt = Cc1cc(O)cc(C)c1C[C@H](N)C(=O)O; dCit = NC(=O)NCCC[C@@H](N)C(=O)O; Nle = CCCC[C@H](N)C(=O)O
In textbook form, pKi equals minus log to base ten of the concentration in mol/L.

| molecule | observed |
| --- | --- |
| CCCC[C@H](NC(=O)[C@H](Cc1ccccc1)NC(=O)[C@@H](CCCN=C(N)N)NC(=O)[C@@H](N)Cc1c(C)cc(O)cc1C)C(N)=O (H-[Dmt][dR]F[Nle]-NH2) | 9.64 |

Observed pKi on Mu-type opioid receptor (Rattus norvegicus, UniProt P33535) for "CCCC[C@@H](C(N)=O)N1Cc2ccccc2C[C@H](NC(=O)[C@@H](CCCN=C(N)N)NC(=O)[C@@H](N)Cc2c(C)cc(O)cc2C)C1=O" , please.
9.37

Observed pKi on Mu-type opioid receptor (Rattus norvegicus, UniProt P33535) for CCCC[C@H](NC(=O)[C@H](Cc1ccccc1)NC(=O)[C@@H](CCCNC(N)=O)NC(=O)[C@@H](N)Cc1c(C)cc(O)cc1C)C(N)=O (H-[Dmt][dCit]F[Nle]-NH2) , please.
9.10

Observed pKi on Mu-type opioid receptor (Rattus norvegicus, UniProt P33535) for "Cc1cc(O)cc(C)c1C[C@H](N)C(=O)N[C@H](CCCNC(N)=O)C(=O)N[C@H]1Cc2ccccc2CN([C@@H](CCCCN)C(N)=O)C1=O" , please.
8.58

Observed pKi on Mu-type opioid receptor (Rattus norvegicus, UniProt P33535) for "Cc1cc(O)cc(C)c1C[C@H](N)C(=O)N[C@H](CCCNC(=N)N)C(=O)N[C@H]1Cc2ccccc2CN([C@@H](CCCCN)C(N)=O)C1=O" , please.
9.21

Observed pKi on Mu-type opioid receptor (Rattus norvegicus, UniProt P33535) for "CCCC[C@@H](C(N)=O)N(C)C(=O)[C@H](Cc1ccccc1)NC(=O)[C@@H](CCCN=C(N)N)NC(=O)[C@@H](N)Cc1c(C)cc(O)cc1C" , please.
9.59

###

Non-standard residues stand in square brackets, D forms with d. Residues, ends and D or L forms follow the SMILES beside them. Dmt = Cc1cc(O)cc(C)c1C[C@H](N)C(=O)O; dCit = NC(=O)NCCC[C@@H](N)C(=O)O; Nle = CCCC[C@H](N)C(=O)O
# Ki measurements, system: Kappa-type opioid receptor (Cavia porcellus)
# Sequence (P41144 whole entry): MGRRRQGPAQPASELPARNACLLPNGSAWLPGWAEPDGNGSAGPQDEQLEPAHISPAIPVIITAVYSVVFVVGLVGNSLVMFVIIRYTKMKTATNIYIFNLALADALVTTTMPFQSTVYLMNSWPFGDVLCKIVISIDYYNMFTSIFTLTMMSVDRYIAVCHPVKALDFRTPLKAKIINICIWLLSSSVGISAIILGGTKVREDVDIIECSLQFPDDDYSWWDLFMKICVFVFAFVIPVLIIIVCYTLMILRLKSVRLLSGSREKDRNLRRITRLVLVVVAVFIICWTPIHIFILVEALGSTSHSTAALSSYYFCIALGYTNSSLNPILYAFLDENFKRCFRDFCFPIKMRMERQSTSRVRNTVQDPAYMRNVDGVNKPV
Write the number in nM without appending the unit.

Reference set (5 entries):
| compound | Ki / nM |
| --- | --- |
| CCCC[C@@H](C(N)=O)N(C)C(=O)[C@H](Cc1ccccc1)NC(=O)[C@@H](CCCN=C(N)N)NC(=O)[C@@H](N)Cc1c(C)cc(O)cc1C | 14.4 |
| CCCC[C@@H](C(N)=O)N1Cc2ccccc2C[C@H](NC(=O)[C@@H](CCCNC(N)=O)NC(=O)[C@@H](N)Cc2c(C)cc(O)cc2C)C1=O | 11.1 |
| Cc1cc(O)cc(C)c1C[C@H](N)C(=O)N[C@H](CCCNC(N)=O)C(=O)N[C@@H](Cc1ccccc1)C(=O)N(C)[C@@H](CCCCN)C(N)=O | 11.5 |
| Cc1cc(O)cc(C)c1C[C@H](N)C(=O)N[C@H](CCCNC(=N)N)C(=O)N[C@@H](Cc1ccccc1)C(=O)N(C)[C@@H](CCCCN)C(N)=O | 56.1 |
| CCCC[C@H](NC(=O)[C@H](Cc1ccccc1)NC(=O)[C@@H](CCCNC(N)=O)NC(=O)[C@@H](N)Cc1c(C)cc(O)cc1C)C(N)=O (H-[Dmt][dCit]F[Nle]-NH2) | 98.5 |

Observed Ki on Kappa-type opioid receptor (Cavia porcellus) for "CCCC[C@@H](C(N)=O)N1Cc2ccccc2C[C@H](NC(=O)[C@@H](CCCN=C(N)N)NC(=O)[C@@H](N)Cc2c(C)cc(O)cc2C)C1=O" , please.
1.12

Observed Ki on Kappa-type opioid receptor (Cavia porcellus) for CCCC[C@H](NC(=O)[C@H](Cc1ccccc1)NC(=O)[C@@H](CCCN=C(N)N)NC(=O)[C@@H](N)Cc1c(C)cc(O)cc1C)C(N)=O (H-[Dmt][dR]F[Nle]-NH2) , please.
16.2

Observed Ki on Kappa-type opioid receptor (Cavia porcellus) for "Cc1cc(O)cc(C)c1C[C@H](N)C(=O)N[C@H](CCCNC(N)=O)C(=O)N[C@@H](Cc1ccccc1)C(=O)N[C@@H](CCCCN)C(N)=O" , please.
20.9
